system: HeLa; test: MALAT1 nuclear FISH intensity, robust Z-score vs DMSO; higher = more nuclear MALAT1 lncRNA, active = -3 or less; details: 10 µM; 6 h
Quick reference: MALAT1 nuclear FISH intensity of the listed items.
Please give only the number in your answer, with no unit.

Completed entries (count: 3):
COC(=O)Nc1nc2cc(C(=O)c3cccs3)ccc2[nH]1	-0.638
CCCC[C@@H](C)/C=C(C)/C=C(\C)C(=O)NC1=C[C@@](O)(/C=C/C=C/C=C/C(=O)NC2=C(O)CCC2=O)[C@@H]2O[C@@H]2C1=O	1.62
O=Cc1c2[nH]c3ccccc3c2cc2[nH]c3ccccc3c12 [6-Formylindolo [3,2-B] carbazole]	-0.828

We now examine a further compound.
Task item: So what's the measured MALAT1 nuclear FISH intensity for this one? `Cc1nc(Nc2ncc(C(=O)Nc3c(C)cccc3Cl)s2)cc(N2CCN(CCO)CC2)n1`
Reply: -3.35

----------
system: HeLa; assay: MALAT1 nuclear FISH intensity, robust Z-score vs DMSO; higher = more nuclear MALAT1 lncRNA, active = -3 or less; details: 10 µM; 6 h
Where a name gives a salt, the structure may show the parent alone.
measured.quantity: MALAT1 nuclear FISH intensity
Please give only the number in your answer, with no unit.

Completed entries (count: 3):
CC1(C2CCCC2)Cc2cc(OCC(=O)O)c(Cl)c(Cl)c2C1=O (configuration not stated)	0.801
CC(N)C12CC3CC(CC(C3)C1)C2 (configuration not stated)	-1.27
CN1CCC(=C2c3ccccc3C=Cc3ccccc32)CC1 [Cyproheptadine hydrochloride sesquihydrate]	-0.789

Task item: So what's the measured MALAT1 nuclear FISH intensity for this one? `CCCCCC(=O)/C=C/C=C\C/C=C\C/C=C\CCCC(=O)O`
Reply: 0.0827

Task item: So what's the measured MALAT1 nuclear FISH intensity for this one? CCCCCC(O)C=CC1C(O)CC(O)C1CCCCCCC(=O)O (configuration not stated)
Reply: -0.894

Task item: So what's the measured MALAT1 nuclear FISH intensity for this one? `CCOC(=O)c1ncn2c1CN(C)C(=O)c1cc(F)ccc1-2`
Reply: 1.22

Task item: So what's the measured MALAT1 nuclear FISH intensity for this one? `CC(C)n1cnc2c(NCc3ccccc3)nc(NCCO)nc21`
Reply: -1.87

Task item: So what's the measured MALAT1 nuclear FISH intensity for this one? `NCCc1c[nH]cn1`
Reply: -0.47

Task item: So what's the measured MALAT1 nuclear FISH intensity for this one? `CCCOc1ccccc1-c1nc2[nH]nnc2c(=O)[nH]1`
Reply: 0.586

Task item: So what's the measured MALAT1 nuclear FISH intensity for this one? `C[N+](C)(C)CC(=O)O`
Reply: 0.765

Task item: So what's the measured MALAT1 nuclear FISH intensity for this one? CCCC(=O)O[C@]1(C(=O)COC(C)=O)CC[C@H]2[C@@H]3C[C@H](F)C4=CC(=O)C=C[C@]4(C)[C@@]3(F)[C@@H](O)C[C@@]21C [Difluprednate]
Reply: -0.0991

Task item: So what's the measured MALAT1 nuclear FISH intensity for this one? Cc1nnc(C(C)C)n1C1C[C@H]2CC[C@@H](C1)N2CC[C@H](NC(=O)C1CCC(F)(F)CC1)c1ccccc1 (stereo in doubt)
Reply: 0.801

Task item: So what's the measured MALAT1 nuclear FISH intensity for this one? COc1ccccc1OCCNCC(O)COc1cccc2[nH]c3ccccc3c12 (configuration not stated)
Reply: 1.69

Task item: So what's the measured MALAT1 nuclear FISH intensity for this one? COCCCOc1ccnc(C[S+]([O-])c2nc3ccccc3[nH]2)c1C (configuration not stated)
Reply: 0.701

Task item: So what's the measured MALAT1 nuclear FISH intensity for this one? `CCCCCOc1ccc(-c2cc(-c3ccc(C(=O)N[C@H]4C[C@@H](O)[C@@H](O)NC(=O)[C@@H]5[C@@H](O)[C@@H](C)CN5C(=O)[C@H]([C@H](O)CC(N)=O)NC(=O)[C@H]([C@H](O)[C@@H](O)c5ccc(O)c(OS(=O)(=O)O)c5)NC(=O)[C@@H]5C[C@@H](O)CN5C(=O)[C@H]([C@@H](C)O)NC4=O)cc3)no2)cc1`
Reply: -0.311

Task item: So what's the measured MALAT1 nuclear FISH intensity for this one? `CNS(=O)(=O)CCc1ccc2[nH]cc(C3CCN(C)CC3)c2c1`
Reply: -0.52

Task item: So what's the measured MALAT1 nuclear FISH intensity for this one? CC(C)NCC(O)COc1ccc(CCOCC2CC2)cc1 (configuration not stated)
Reply: 0.661

----------
tested on: HeLa; assay: nuclear count per well, robust Z-score vs DMSO; higher = more cells (less toxicity); settings: 10 µM; 6 h
Where a name gives a salt, the structure may show the parent alone.
Quick reference: nuclear count per well of the listed items.
Please give only the number in your answer, with no unit.

Completed entries (count: 4):
OC(CCN1CCCCC1)(c1ccccc1)C1CC2C=CC1C2 (stereo unspecified)	0.74
CNC(=O)c1cc(Oc2ccc(NC(=O)Nc3ccc(Cl)c(C(F)(F)F)c3)cc2)ccn1 [Sorafenib tosylate]	-0.322
CCN(CC)CCOc1ccc(C(=C(Cl)c2ccccc2)c2ccccc2)cc1 [Clomiphene Citrate]	0.246
NC(=O)c1cn(Cc2c(F)cccc2F)nn1 [Rufinamide]	0.985

Task item: So what's the measured nuclear count per well for this one? `CCCCC/C=C\C/C=C\C/C=C\C/C=C\CCCC(=O)O[C@H](COCCCCCCCCCCCCCCCC)COP(=O)([O-])OCC[N+](C)(C)C`
Reply: 0.0986

Task item: So what's the measured nuclear count per well for this one? NC(=S)c1ccccc1 [Thiobenzamide]
Reply: -0.0414

Task item: So what's the measured nuclear count per well for this one? Cc1ccccc1N1C(=O)c2cc(S(N)(=O)=O)c(Cl)cc2NC1C (stereo unspecified)
Reply: 0.605

Task item: So what's the measured nuclear count per well for this one? CC1(C)O[C@@H]2C[C@H]3[C@@H]4CCC5=CC(=O)C=C[C@]5(C)[C@H]4[C@@H](O)C[C@]3(C)[C@]2(C(=O)CO)O1 [Desonide]
Reply: 1.16

Task item: So what's the measured nuclear count per well for this one? Cc1oncc1C(=O)Nc1ccc(C(F)(F)F)cc1 [Leflunomide]
Reply: 0.618

Task item: So what's the measured nuclear count per well for this one? `O=C(O)C[C@H](O)C[C@H](O)/C=C/c1c(C2CC2)nc2ccccc2c1-c1ccc(F)cc1`
Reply: -0.666

Task item: So what's the measured nuclear count per well for this one? `COc1cc(Br)c(Nc2nc(-c3c(C)nc4ncccn34)cs2)c(Br)c1`
Reply: -2.28

----------
test system: HeLa; experiment: nuclear count per well, robust Z-score vs DMSO; higher = more cells (less toxicity); settings: 10 µM; 6 h
Quick reference: nuclear count per well of the listed items.
Please give only the number in your answer, with no unit.

Completed entries (count: 6):
C=CCNc1ncnc2ccc(Br)cc12	-1.19
CN1CCN(C2=Nc3ccccc3Oc3ccc(Cl)cc32)CC1 [Loxapine Succinate]	0.347
CCC(C)[C@H](NC(=O)[C@H](CCCCN)NC(=O)[C@H](CCCCN)NC(=O)[C@H](C)NC(=O)[C@H](CC(C)C)NC(=O)[C@H](C)NC(=O)[C@H](C)NC(=O)[C@H](CC(C)C)NC(=O)[C@H](C)NC(=O)[C@H](CCCCN)NC(=O)[C@H](CC(C)C)NC(=O)[C@H](CC(N)=O)NC(=O)[C@@H](N)[C@@H](C)CC)C(=O)N[C@@H](CC(C)C)C(N)=O (stereo partly specified)	0.543
COc1ccc(OC)c(C(O)CNC(=O)CN)c1 (stereo unspecified)	0.762
CCCCCC(=O)/C=C/C=C\CCCCCCCC(=O)O [13-Keto-octadeca-9Z,11E-dienoic acid]	-0.0617
NC(=O)c1ncn([C@@H]2O[C@H](CO)[C@@H](O)[C@H]2O)n1	0.132

Task item: So what's the measured nuclear count per well for this one? `CNS(=O)(=O)CCc1ccc2[nH]cc(C3CCN(C)CC3)c2c1`
Reply: -0.5

Task item: So what's the measured nuclear count per well for this one? `CC(C)c1nc(N(C)S(C)(=O)=O)nc(-c2ccc(F)cc2)c1/C=C/[C@@H](O)C[C@@H](O)CC(=O)O`
Reply: -1.17

Task item: So what's the measured nuclear count per well for this one? NS(=O)(=O)c1cc2c(cc1Cl)N=CNS2(=O)=O [Chlorothiazide]
Reply: -0.175

Task item: So what's the measured nuclear count per well for this one? CCCCC[C@H](O)/C=C/[C@@H]1[C@@H](C/C=C\CCCC(=O)O)[C@H](O)C[C@H]1O [9b,11a-Prostaglandin F2]
Reply: 0.982

Task item: So what's the measured nuclear count per well for this one? COCCCOc1ccnc(C[S+]([O-])c2nc3ccccc3[nH]2)c1C (stereo unspecified)
Reply: 0.91

Task item: So what's the measured nuclear count per well for this one? `CO/N=C(\C(=O)N[C@@H]1C(=O)N2C(C(=O)O)=C(COC(C)=O)CS[C@H]12)c1csc(N)n1`
Reply: 0.588
